- testMethodNotes: SGF digest of 168 nutritive polypeptide library, intact protein by LC-MS/MS
- Assay type: in vitro ADME
- conditionDetails: 168 nutritive polypeptide library SGF digest, LC-MS/MS spectral counts
% Intact Protein at 10 min overview
Entry rule: numbers only, all in %.

Prompt: What value of measured % Intact Protein at 10 min is listed for SEQID-00511: protein of the 168 nutritive polypeptide library (protein, Arthrospira platensis C1, protein of the 168 nutritive polypeptide library) MVLFGFGKKKSLPKPEEALPGRDRVMSVPDRHYINGNPLKPPFPEGMEQAVFGLGCFWGAERKFWQQQGVFSTAVGYAGGYTKNPTYEEVCSGMTGHTEVVLVVFDPKVISYTDLLKLFWESHNPTQGMRQGNDTGTQYRSAIYTYSDEQQRLALASRDRYQQALSAASYGEITTEIAPAQEFYYAEAYHQQYLGKNPNGYCGLGGTGVGCPAMTETSV ?
Response: 4.3

Prompt: What value of measured % Intact Protein at 10 min is listed for SEQID-00592: protein of the 168 nutritive polypeptide library (protein, Zea mays, protein of the 168 nutritive polypeptide library) MAQTVVLKVGMSCEGCVGAVKRVLGKMEGVESYDVDIMEQKVTVKGNVTPDAVLQTVSKTGKKTSFWEAEAVTSESATPAGATA ?
Response: 24.3

Prompt: What value of measured % Intact Protein at 10 min is listed for SEQID-00485: nutritive polypeptide naturally produced in Chickpea, recombinantly expressed in E. coli (protein, listed as Cicer arietinum) MTKTGYINAAFRSSRNNEAYLFINDKYVLLDYAPGTSNDKVLYGPSFVRDGYKSLAKTIFGTYGIDCSFDTEYNEAFIFYENFCARIDYAPHSDKDKIISGPKKIADMFPFFKGTVFENGIDAAFRSTKGKEVYLFKGDKYARIDYLTNRLVQNIKSISDGFPCLRGTIFEAGMDSAFASHKTNEAYLFKGEYYARINFTPGSTNDIMGGVKKTLDYWPSLRGIIPLE ?
Response: 0

Prompt: What value of measured % Intact Protein at 10 min is listed for SEQID-00564: protein of the 168 nutritive polypeptide library (protein, Zea mays, protein of the 168 nutritive polypeptide library) MAPKAEKKPAAKKPAEEEPAAPAEKAPAGKKPDLIKRLPAGKSAGKEGGVDKKGRKKAKKSVETYKIYIFKVLKQVHPDIGISSKAMSIMNSFINDIFEKLAGEAAKLARYNKKPTITSREIQTSVRLVLPGELAKHAVSEGTKAVTKFTSS ?
Response: 89.6

Prompt: What value of measured % Intact Protein at 10 min is listed for SEQID-00633: protein of the 168 nutritive polypeptide library (protein, listed as Saccharomyces cerevisiae, source: /note="strain ATCC 204508 / S288c", protein of the 168 nutritive polypeptide library) MSDAGRKGFGEKASEALKPDSQKSYAEQGKEYITDKADKVAGKVQPEDNKGVFQGVHDSAEKGKDNAEGQGESLADQARDYMGAAKSKLNDAVEYVSGRVHGEEDPTKK ?
Response: 92.1
